Please provide measured binding relative to wild-type Fc for the entries that follow.
- SYSTEM_TESTED: T1, CD16A F158 (human, UniProt P08637 17-208, limits assumed)
- T1 construct: construct not described
- TEST_NAME: method not stated at Table 3
Numbers only; they are read as fold.

# get_value(readout='binding relative to wild-type Fc', item= Fc variant D270E G316D R416G (other, UniProt P01857-1 104-330, looked up, domain: Fc) DKTHTCPPCPAPELLGGPSVFLFPPKPKDTLMISRTPEVTCVVVDVSHEEPEVKFNWYVDGVEVHNAKTKPREEQYNSTYRVVSVLTVLHQDWLNDKEYKCKVSNKALPAPIEKTISKAKGQPREPQVYTLPPSRDELTKNQVSLTCLVKGFYPSDIAVEWESNGQPENNYKTTPPVLDSDGSFFLYSKLTVDKSGWQQGNVFSCSVMHEALHNHYTQKSLSLSPGK )
2.49

# get_value(readout='binding relative to wild-type Fc', item= Fc variant F243L D270E K392T P396L (other, UniProt P01857-1 104-330, looked up, domain: Fc) DKTHTCPPCPAPELLGGPSVFLLPPKPKDTLMISRTPEVTCVVVDVSHEEPEVKFNWYVDGVEVHNAKTKPREEQYNSTYRVVSVLTVLHQDWLNGKEYKCKVSNKALPAPIEKTISKAKGQPREPQVYTLPPSRDELTKNQVSLTCLVKGFYPSDIAVEWESNGQPENNYTTTPLVLDSDGSFFLYSKLTVDKSRWQQGNVFSCSVMHEALHNHYTQKSLSLSPGK )
2.44

# get_value(readout='binding relative to wild-type Fc', item= Fc variant R255L D270E Y300L P396L (other, UniProt P01857-1 104-330, looked up, domain: Fc) DKTHTCPPCPAPELLGGPSVFLFPPKPKDTLMISLTPEVTCVVVDVSHEEPEVKFNWYVDGVEVHNAKTKPREEQYNSTLRVVSVLTVLHQDWLNGKEYKCKVSNKALPAPIEKTISKAKGQPREPQVYTLPPSRDELTKNQVSLTCLVKGFYPSDIAVEWESNGQPENNYKTTPLVLDSDGSFFLYSKLTVDKSRWQQGNVFSCSVMHEALHNHYTQKSLSLSPGK )
1.74

# get_value(readout='binding relative to wild-type Fc', item= Fc variant D270E K392T P396L (other, UniProt P01857-1 104-330, looked up, domain: Fc) DKTHTCPPCPAPELLGGPSVFLFPPKPKDTLMISRTPEVTCVVVDVSHEEPEVKFNWYVDGVEVHNAKTKPREEQYNSTYRVVSVLTVLHQDWLNGKEYKCKVSNKALPAPIEKTISKAKGQPREPQVYTLPPSRDELTKNQVSLTCLVKGFYPSDIAVEWESNGQPENNYTTTPLVLDSDGSFFLYSKLTVDKSRWQQGNVFSCSVMHEALHNHYTQKSLSLSPGK )
2.28

# get_value(readout='binding relative to wild-type Fc', item= Fc variant F243L P247L D270E N421K (other, UniProt P01857-1 104-330, looked up, domain: Fc) DKTHTCPPCPAPELLGGPSVFLLPPKLKDTLMISRTPEVTCVVVDVSHEEPEVKFNWYVDGVEVHNAKTKPREEQYNSTYRVVSVLTVLHQDWLNGKEYKCKVSNKALPAPIEKTISKAKGQPREPQVYTLPPSRDELTKNQVSLTCLVKGFYPSDIAVEWESNGQPENNYKTTPPVLDSDGSFFLYSKLTVDKSRWQQGKVFSCSVMHEALHNHYTQKSLSLSPGK )
3.45

# get_value(readout='binding relative to wild-type Fc', item= Fc mutant 18: F243L R292P Y300L V305I P396L (other, UniProt P01857-1 104-330, looked up, domain: Fc; Same substitutions as the Fc of ch4D5-FcMT1) DKTHTCPPCPAPELLGGPSVFLLPPKPKDTLMISRTPEVTCVVVDVSHEDPEVKFNWYVDGVEVHNAKTKPPEEQYNSTLRVVSILTVLHQDWLNGKEYKCKVSNKALPAPIEKTISKAKGQPREPQVYTLPPSRDELTKNQVSLTCLVKGFYPSDIAVEWESNGQPENNYKTTPLVLDSDGSFFLYSKLTVDKSRWQQGNVFSCSVMHEALHNHYTQKSLSLSPGK )
8.25

# get_value(readout='binding relative to wild-type Fc', item= Fc variant R255L D270E P396L (other, UniProt P01857-1 104-330, looked up, domain: Fc) DKTHTCPPCPAPELLGGPSVFLFPPKPKDTLMISLTPEVTCVVVDVSHEEPEVKFNWYVDGVEVHNAKTKPREEQYNSTYRVVSVLTVLHQDWLNGKEYKCKVSNKALPAPIEKTISKAKGQPREPQVYTLPPSRDELTKNQVSLTCLVKGFYPSDIAVEWESNGQPENNYKTTPLVLDSDGSFFLYSKLTVDKSRWQQGNVFSCSVMHEALHNHYTQKSLSLSPGK )
1.65

# get_value(readout='binding relative to wild-type Fc', item= Fc variant F243L R255L D270E P396L (other, UniProt P01857-1 104-330, looked up, domain: Fc) DKTHTCPPCPAPELLGGPSVFLLPPKPKDTLMISLTPEVTCVVVDVSHEEPEVKFNWYVDGVEVHNAKTKPREEQYNSTYRVVSVLTVLHQDWLNGKEYKCKVSNKALPAPIEKTISKAKGQPREPQVYTLPPSRDELTKNQVSLTCLVKGFYPSDIAVEWESNGQPENNYKTTPLVLDSDGSFFLYSKLTVDKSRWQQGNVFSCSVMHEALHNHYTQKSLSLSPGK )
1.64

# get_value(readout='binding relative to wild-type Fc', item= Fc variant P247L D270E N421K (other, UniProt P01857-1 104-330, looked up, domain: Fc) DKTHTCPPCPAPELLGGPSVFLFPPKLKDTLMISRTPEVTCVVVDVSHEEPEVKFNWYVDGVEVHNAKTKPREEQYNSTYRVVSVLTVLHQDWLNGKEYKCKVSNKALPAPIEKTISKAKGQPREPQVYTLPPSRDELTKNQVSLTCLVKGFYPSDIAVEWESNGQPENNYKTTPPVLDSDGSFFLYSKLTVDKSRWQQGKVFSCSVMHEALHNHYTQKSLSLSPGK )
2.46

# get_value(readout='binding relative to wild-type Fc', item= Fc variant D270E P396L G316D R416G (other, UniProt P01857-1 104-330, looked up, domain: Fc; also called D270E G316D P396L R416G) DKTHTCPPCPAPELLGGPSVFLFPPKPKDTLMISRTPEVTCVVVDVSHEEPEVKFNWYVDGVEVHNAKTKPREEQYNSTYRVVSVLTVLHQDWLNDKEYKCKVSNKALPAPIEKTISKAKGQPREPQVYTLPPSRDELTKNQVSLTCLVKGFYPSDIAVEWESNGQPENNYKTTPLVLDSDGSFFLYSKLTVDKSGWQQGNVFSCSVMHEALHNHYTQKSLSLSPGK )
0.94

# get_value(readout='binding relative to wild-type Fc', item= Fc mutant 15: R292P V305I P396L (other, UniProt P01857-1 104-330, looked up, domain: Fc) DKTHTCPPCPAPELLGGPSVFLFPPKPKDTLMISRTPEVTCVVVDVSHEDPEVKFNWYVDGVEVHNAKTKPPEEQYNSTYRVVSILTVLHQDWLNGKEYKCKVSNKALPAPIEKTISKAKGQPREPQVYTLPPSRDELTKNQVSLTCLVKGFYPSDIAVEWESNGQPENNYKTTPLVLDSDGSFFLYSKLTVDKSRWQQGNVFSCSVMHEALHNHYTQKSLSLSPGK )
1.9

Sourced from patent US20240131162A1
